- Measurement protocol: CCTE_Mundy_HCI_Cortical_NOG_NeuronCount: CCTE's Neurite Outgrowth Assay in rat cortical cells for Neuron Count, Mundy Lab (AID 2284236);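 further: neurons counted by imaging betaIII-tubulin and Hoechst stained cortical cells; cells exposed to compound for about 48 hours before fixation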
Records with an inconclusive call do not appear. Calls of active or inactive are those of the source. How the source made its calls: active means hit-call score of the fitted dose curve at least 0.9, where 1 is the maximum; inconclusive means response in the unintended direction; inactive means score below 0.9.
Use one of these outcomes when replying: active, inactive

CC(C)N(C(=O)COc1nnc(C(F)(F)F)s1)c1ccc(F)cc1 ... inactive

Data request: What did this assay record as the result for "O=C(O)C(F)(F)C(F)(F)C(F)(F)C(F)(F)C(F)(F)C(F)(F)C(F)(F)F" ?
Data returned: inactive

Data request: What did this assay record as the result for "COP(=S)(OC)Oc1ccc([N+](=O)[O-])cc1" ?
Data returned: active

Data request: What did this assay record as the result for CC1(c2ccc(Oc3ccccc3)cc2)OC(=O)N(Nc2ccccc2)C1=O (centres undefined) ?
Data returned: active

----------
- Read-out: sulfotransferase 2A1 (SULT2A1), SULT2A1 (gene 6822)
- Measurement protocol: LTEA_HepaRG_SULT2A1: Life Technologies and Expression Analysis (LTEA) Assay for sulfotransferase 2A1 (SULT2A1) using HepaRG (AID 2283531)
- Condition summary: mRNA level, 48 h; actives raise or lower the signal
- Method: LTEA_HepaRG is a cell based, multiplexed-readout assay that uses HepaRG, a human liver cell line, with measurements taken at 48 hours after chemical dosing on a 96-well plate.LTEA_HepaRG_SULT2A1 is one of 102 assay component(s) measured in the LTEA HepaRG cell culture assay. It is a marker of NR mediated transport.Data from the assay component LTEA_HepaRG_SULT2A1 was analyzed into 1 endpoint. […]
Activity calls are given as the source filed them. The calls were made as follows: active = hit-call score of the fitted dose curve at least 0.9, where 1 is the maximum; inactive = score below 0.9.
Use one of these outcomes when replying: yes (1) = active, no (0) = inactive

Use the examples below as a reference point.
O=C(O)COc1ccc(Cl)cc1Cl ... no (0)
O=S1OCC2C(CO1)C1(Cl)C(Cl)=C(Cl)C2(Cl)C1(Cl)Cl (stereo not given) ... yes (1)
CC[C@H](C)[C@H]1O[C@]2(C=C[C@@H]1C)C[C@@H]1C[C@@H](C/C=C(\C)[C@@H](O[C@H]3C[C@H](OC)[C@@H](O[C@H]4C[C@H](OC)[C@@H](O)[C@H](C)O4)[C@H](C)O3)[C@@H](C)/C=C/C=C3\CO[C@@H]4[C@H](O)C(C)=C[C@@H](C(=O)O1)[C@]34O)O2 (tested in a mixture with another compound) ... yes (1)

Data request: What did this assay record as the result for "N#Cc1c(Cl)c(Cl)c(Cl)c(C#N)c1Cl" ?
Data returned: no (0)

Data request: What did this assay record as the result for "O=C(Nc1ccccc1)Nc1cnns1" ?
Data returned: yes (1)

----------
- Read-out: Protein phosphatase 2A (PPP2R4), PTPA (gene 5524)
- Measurement protocol: LTEA_HepaRG_PPP2R4: Life Technologies and Expression Analysis (LTEA) Assay for Protein phosphatase 2A (PPP2R4) using HepaRG (AID 2283522)
- Condition summary: mRNA level, 48 h; actives raise or lower the signal
The source made the active and inactive calls. How the source made its calls: active means hit-call score of the fitted dose curve at least 0.9, where 1 is the maximum; inactive means score below 0.9.
Parameter measured: AC50

See these solved cases before continuing.
CC1(c2ccc(Oc3ccccc3)cc2)OC(=O)N(Nc2ccccc2)C1=O (configuration not stated) ... 12.1 µM (active)
O=[N+]([O-])/N=C1\NCCN1Cc1ccc(Cl)nc1 ... 24.3 µM (active)
CC1(C)C(C=C(Cl)Cl)C1C(=O)OC(C#N)c1ccc(F)c(Oc2ccccc2)c1 (configuration not stated) ... inactive
N#Cc1c(Cl)c(Cl)c(Cl)c(C#N)c1Cl ... inactive
N#CN ... inactive

List reported AC50 for each of these compounds:
1. O=C(O)C(F)(F)C(F)(F)C(F)(F)C(F)(F)C(F)(F)C(F)(F)C(F)(F)F
2. CC(C)(C)C(O)C(Oc1ccc(Cl)cc1)n1cncn1 (configuration not stated)
3. ClC1C(Cl)C(Cl)C(Cl)C(Cl)C1Cl (configuration not stated)
4. COP(=S)(OC)Oc1ccc(SC)c(C)c1

Data returned:
["inactive", "inactive", "inactive", "inactive"]
